Recorded nonsense suppression for the following variants
B1: tRNA (parent)
chain: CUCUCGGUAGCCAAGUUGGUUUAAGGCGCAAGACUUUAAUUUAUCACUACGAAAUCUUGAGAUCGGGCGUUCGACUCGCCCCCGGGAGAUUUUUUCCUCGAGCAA

- Variants of: B1
- assay_method_text: nonsense suppression (GFP-seq) (ratio to wild type); higher = more function; SUP4oc tRNA, yeast GFP reporter sort-seq
Fewer inactive variants are shown than the library holds.
outcome_measure: nonsense suppression

INSERT INTO results (variant_annotation, test_result) VALUES
  ('A14U A33U C34G G59C', '≤ 0.026'),
  ('A60U G65U A74C C82A', '≤ 0.026'),
  ('U2G G6C G18A G67C G86A A87U', '≤ 0.026'),
  ('G25A C75G G78A', '≤ 0.026'),
  ('C11G A31U', '≤ 0.026'),
  ('C3G G78A', '≤ 0.026'),
  ('A30G C83A', '≤ 0.026'),
  ('U21C C56G U70C C75G', '≤ 0.026'),
  ('U35G G85U', '≤ 0.026'),
  ('C11U A33G A74C C83A', '≤ 0.026'),
  ('C11U C29G', '≤ 0.026'),
  ('A9G C11U G61C', '≤ 0.026'),
  ('G7U U22A', '≤ 0.026'),
  ('U8C A14C C34U', '≤ 0.026'),
  ('A33U C34U', '≤ 0.026'),
  ('C12A C77A G86U', '≤ 0.026'),
  ('C12U A33C C80G', '≤ 0.026'),
  ('U58A A74G G88A', '≤ 0.026'),
  ('U17G G19C U21A U57A G78U', '≤ 0.026'),
  ('G69A C82G', '≤ 0.026'),
  ('U2C A31G C72U', '≤ 0.026');
